experiment: protein stability index of a GFP-peptide fusion (yeast GPS) (PSI 1-4); higher = more stable; sorted into four equal gates, so the index is relative within each strain; conditions: ubr1∆
VALUE KIND: protein stability index
Respond using a number only.

Example entries begin here.
> print(dat)
                    monomer.sequence  experimental.result
 1  LMEEIESLKKELQIFKT [YIL149C/MLP2]                 3.08
 2          IGHLIKTRFKGSQFIVV [SMC2]                 3.14
 3  FNFGGKSDTVTSASQPF [YOR098C/NUP1]                 1.93
 4          VDEEDENGTHNDEVNED [YCG1]                 3.51
 5          LTGNQLPTPTPTEMEPD [SWI1]                 2.85
 6          FMLRKQDPKTLVALLSR [SSN2]                 2.09
 7          LKAKNQEEEGELEHLTK [DSN1]                 3.39
 8          EPFFLVTKITDMLLHKY [SRB8]                 2.72
 9         IMRILKSNGLAPEIPED [RPS13]                 2.91
10          QSNYGIYSSDAQGDPNL [NUT1]                 3.06

Q: Quickly give me recorded protein stability index for GKYTLGYKSTVKSLRQG [RPL30]
A: 2.47

Q: Quickly give me recorded protein stability index for FQKAQGSYAGHRKHIAV [YCG1]
A: 2.46

* * *

experiment: protein stability index of a GFP-peptide fusion (yeast GPS) (PSI 1-4); higher = more stable; sorted into four equal gates, so the index is relative within each strain; conditions: ubr1∆
protein stability index: recorded values
Respond using a number only.

Q: Quickly give me recorded protein stability index for TDSSALTYDRLEFATIR [PRE9]
A: 3.18

* * *

protein stability index: recorded values
assay: protein stability index of a GFP-peptide fusion (yeast GPS) (PSI 1-4); higher = more stable; sorted into four equal gates, so the index is relative within each strain; conditions: pdr5∆
Respond using a number only.

Q: Quickly give me recorded protein stability index for KRNSDKVEYKIVHDDPA [ITC1]
A: 2.02

Q: Quickly give me recorded protein stability index for TQPKAEATQDDDFDMLF [NUT1]
A: 3.15

Q: Quickly give me recorded protein stability index for HVKVNDKKEMTIYNNIR [SIR3]
A: 2.91

Q: Quickly give me recorded protein stability index for IIEQLSIAAERYDYSDE [YCG1]
A: 2.78

Q: Quickly give me recorded protein stability index for DPNEVEIKKLLATNSLV [DIS3]
A: 1.82

Q: Quickly give me recorded protein stability index for NITKNLKTFNGSLALLK [POP4]
A: 3.19

Q: Quickly give me recorded protein stability index for TLLVIRRLHKVLRPFLL [SNF2]
A: 1.34

Q: Quickly give me recorded protein stability index for NENDLKTYNCLHEKYLT [SMC1]
A: 2.68

Q: Quickly give me recorded protein stability index for EAELSSTKVENSAIIQN [YIL149C/MLP2]
A: 2.87

Q: Quickly give me recorded protein stability index for NVKNDVSFNDSQSMVTN [YIL149C/MLP2]
A: 3.37

Q: Quickly give me recorded protein stability index for VFGISKTSSGSYNYVEN [ITC1]
A: 3.12

Q: Quickly give me recorded protein stability index for NKFHKSIREDILECDLL [SIR2]
A: 2.91

Entry source: the supplement of paper PMC9732359
